B1: VTI1B (parent)
chain: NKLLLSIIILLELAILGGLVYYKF

Variants of: B1
Assay: protein stability index of a GFP-peptide fusion (GPS, HEK-293T) (PSI 1-6); higher = more stable;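 further: lentivirally expressed fusions sorted by FACS into six bins by GFP to DsRed ratio, PSI derived from sequencing read proportions per bin multiplied by bin number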
Conditions: c terminus: a fixed tail appended
Parameter threshold = 3. Response is Criterion met when protein stability index meets or exceeds it, else Criterion not met.

Please check the record "L3H" and state if its protein stability index is at or above 3.
Criterion met

Please check the record "I8Y" and state if its protein stability index is at or above 3.
Criterion met

Please check the record "L19Y" and state if its protein stability index is at or above 3.
Criterion not met

Please check the record "L10M" and state if its protein stability index is at or above 3.
Criterion not met

Please check the record "I9T" and state if its protein stability index is at or above 3.
Criterion not met

Please check the record "G18C" and state if its protein stability index is at or above 3.
Criterion met

Please check the record "L5P" and state if its protein stability index is at or above 3.
Criterion not met

Please check the record "L4A" and state if its protein stability index is at or above 3.
Criterion met

Please check the record "F24Q" and state if its protein stability index is at or above 3.
Criterion not met

Please check the record "L3V" and state if its protein stability index is at or above 3.
Criterion met

Please check the record "L3N" and state if its protein stability index is at or above 3.
Criterion met

Please check the record "L5H" and state if its protein stability index is at or above 3.
Criterion met

Please check the record "E12G" and state if its protein stability index is at or above 3.
Criterion not met

Please check the record "I7F" and state if its protein stability index is at or above 3.
Criterion not met

Please check the record "L13D" and state if its protein stability index is at or above 3.
Criterion not met

Please check the record "K23N" and state if its protein stability index is at or above 3.
Criterion not met

Please check the record "F24P" and state if its protein stability index is at or above 3.
Criterion not met

Please check the record "G17I" and state if its protein stability index is at or above 3.
Criterion not met

Please check the record "I15K" and state if its protein stability index is at or above 3.
Criterion met

Please check the record "I9N" and state if its protein stability index is at or above 3.
Criterion met

Please check the record "E12V" and state if its protein stability index is at or above 3.
Criterion not met

Please check the record "I7Y" and state if its protein stability index is at or above 3.
Criterion not met

Please check the record "I9R" and state if its protein stability index is at or above 3.
Criterion met

Please check the record "E12N" and state if its protein stability index is at or above 3.
Criterion not met

Please check the record "A14P" and state if its protein stability index is at or above 3.
Criterion not met

Please check the record "L16C" and state if its protein stability index is at or above 3.
Criterion not met

Please check the record "L16Q" and state if its protein stability index is at or above 3.
Criterion met

Please check the record "V20I" and state if its protein stability index is at or above 3.
Criterion not met

Please check the record "L10D" and state if its protein stability index is at or above 3.
Criterion not met

Please check the record "S6D" and state if its protein stability index is at or above 3.
Criterion not met

Please check the record "G18T" and state if its protein stability index is at or above 3.
Criterion not met

Please check the record "K2P" and state if its protein stability index is at or above 3.
Criterion not met

Please check the record "A14W" and state if its protein stability index is at or above 3.
Criterion met

Please check the record "V20D" and state if its protein stability index is at or above 3.
Criterion met

Please check the record "E12I" and state if its protein stability index is at or above 3.
Criterion not met

Please check the record "L4H" and state if its protein stability index is at or above 3.
Criterion met

Please check the record "F24S" and state if its protein stability index is at or above 3.
Criterion not met

Please check the record "A14L" and state if its protein stability index is at or above 3.
Criterion met

Please check the record "I9K" and state if its protein stability index is at or above 3.
Criterion met

Please check the record "E12K" and state if its protein stability index is at or above 3.
Criterion not met

Please check the record "Y21F" and state if its protein stability index is at or above 3.
Criterion met

Please check the record "L13N" and state if its protein stability index is at or above 3.
Criterion not met

Please check the record "I8M" and state if its protein stability index is at or above 3.
Criterion not met

Please check the record "V20W" and state if its protein stability index is at or above 3.
Criterion not met
